- Test system: K-562 leukemia
- Assay Notes: NCI tumour cell line growth inhibition, 48 h
TGI values for the compounds below.

See these solved cases before continuing.
{"columns": ["Compound", "Observable", "Measured Value"],
 "data": [
  ["O=C(Cc1ccccc1)NN1C(=O)/C(=C\\c2cccc([N+](=O)[O-])c2)SC1=Nc1ccccc1", "TGI", "> 100 µM"],
  ["Cc1cc2nc(C=C(C(F)(F)F)C(F)(F)F)sc2cc1C", "TGI", "> 100 µM"],
  ["O=c1c2ccccc2c(/C=N\\NC2=NCCN2)c2oc3ccccc3n12", "TGI", "> 100 µM"],
  ["N/N=C(\\c1nc2ccc([N+](=O)[O-])cc2[nH]c1=O)C(O)c1ccc(Cl)c(Cl)c1 (centres undefined)", "TGI", "> 100 µM"],
  ["O=c1[nH]c(=O)n(C2CC(O)C(CO)O2)cc1C(F)(C(F)(F)F)C(F)(F)F (centres undefined)", "TGI", "> 100 µM"],
  ["CCC1(CC)C(=O)N(C(=O)c2ccccc2)N(C(=O)c2ccc(Cl)cc2)C1=O", "TGI", "> 75 µM"],
  ["CC(=O)OCCOCNC(=S)N/N=C/c1cc([N+](=O)[O-])ccc1O", "TGI", "> 100 µM"],
  ["CCCCCCCCCCCCCC1=C(O)C(=O)C(CC2=C(O)C(=O)C(CCCCCCCCCCCCC)=C(O)C2=O)=C(O)C1=O", "TGI", "> 100 µM"]
]}

Now for a further compound.
QUERY: Name the recorded TGI of the compound listed here: O=C(N/C(=C\c1cccc([N+](=O)[O-])c1)c1nc2ccccc2[nH]1)c1ccccc1
RESULT: > 100 µM
